# method: Metabolic stability evaluation, rat liver microsome experiment
# Type: in vitro ADME
# particulars: liver microsomes, pH 7.4, 1 μM compound, 0.5 mg/mL protein, 37° C., read-out: Rat liver microsome experiment t1/2
Listed here: items and their measured half-life at 1 μM.
experimental_endpoint: half-life at 1 μM (min)

molecule: Cc1cnc(Nc2ccc(OCCN3CCCC3)cc2)nc1Nc1cccc(S(=O)(=O)NC(C)(C)C)c1 [Fedratinib, reference compound]
measurement: 17
//
molecule: [2H]C([2H])([2H])C(C)(NS(=O)(=O)c1cccc(Nc2nc(Nc3ccc(OCCN4CCCC4)cc3)ncc2C)c1)C([2H])([2H])[2H]
measurement: 17.2
//
molecule: [2H]C1([2H])N(CCOc2ccc(Nc3ncc(C)c(Nc4cccc(S(=O)(=O)NC(C)(C)C)c4)n3)cc2)C([2H])([2H])C([2H])([2H])C1([2H])[2H]
measurement: 18
//
molecule: [2H]C([2H])([2H])C(NS(=O)(=O)c1cccc(Nc2nc(Nc3ccc(OCCN4CCCC4)cc3)ncc2C)c1)(C([2H])([2H])[2H])C([2H])([2H])[2H]
measurement: 18.1
//
molecule: [2H]C([2H])(Oc1ccc(Nc2ncc(C)c(Nc3cccc(S(=O)(=O)NC(C)(C)C)c3)n2)cc1)C([2H])([2H])N1CCCC1
measurement: 18.7
